- assay: Synergistic cytotoxicity against mouse L5178 cells expressing human ABCB1 assessed as combination index at ED75 using 30:1 test compound to doxorubicin ratio after 48 hrs by MTT-based checkerboard microplate method
- Type: functional
CI values, listed per item
Give the value as a plain number.

>  <item-smiles>
C=CCO/N=C1/C=C2C3=CC[C@H]([C@@]4(C)OC(C)(C)O[C@@H]4CCC(C)(C)O)[C@@]3(C)CC[C@@H]2[C@@]2(C)C[C@@H]3OC(C)(C)O[C@@H]3C[C@@H]12

>  <reported-measurement>
0.32

$$$$

The measured CI associated with "CC(C)(O)CC[C@H]1OC(C)(C)O[C@]1(C)[C@H]1CC=C2C3=C/C(=N/O)[C@@H]4C[C@H]5OC(C)(C)O[C@H]5C[C@]4(C)[C@H]3CC[C@@]21C" reads 0.25

====

CI values, listed per item
- assay: Synergistic cytotoxicity against mouse L5178 cells assessed as combination index at ED50 using 37.5:1 test compound to doxorubicin ratio after 48 hrs by MTT-based checkerboard microplate method
- Format: functional
Give the value as a plain number.

Example entries and their recorded answers appear below.
>  <item-smiles>
CC(C)(O)CC[C@H]1OC(C)(C)O[C@]1(C)[C@H]1CC[C@@]2(O)C3=C/C(=N\OC(C)(C)C)[C@@H]4C[C@H]5OC(C)(C)O[C@H]5C[C@]4(C)[C@H]3CC[C@]12C

>  <quantity-kind>
CI

>  <reported-measurement>
0.58

$$$$
>  <item-smiles>
CCO/N=C1\C=C2[C@H](CC[C@]3(C)[C@@H]([C@@]4(C)OC(C)(C)O[C@@H]4CCC(C)(C)O)CC[C@@]23O)[C@@]2(C)C[C@@H]3OC(C)(C)O[C@@H]3C[C@@H]12

>  <quantity-kind>
CI

>  <reported-measurement>
0.55

$$$$
>  <item-smiles>
CCO/N=C1/C=C2[C@H](CC[C@]3(C)[C@@H]([C@@]4(C)OC(C)(C)O[C@@H]4CCC(C)(C)O)CC[C@@]23O)[C@@]2(C)C[C@@H]3OC(C)(C)O[C@@H]3C[C@@H]12

>  <quantity-kind>
CI

>  <reported-measurement>
0.63

$$$$
>  <item-smiles>
CC(C)(O)CC[C@H]1OC(C)(C)O[C@]1(C)[C@H]1CC=C2C3=CC(=O)N[C@@H]4C[C@H]5OC(C)(C)O[C@H]5C[C@]4(C)[C@H]3CC[C@@]21C

>  <quantity-kind>
CI

>  <reported-measurement>
0.57

$$$$

# ---- query compound ----
The measured CI associated with "CCO/N=C1/C=C2C3=CC[C@H]([C@@]4(C)OC(C)(C)O[C@@H]4CCC(C)(C)O)[C@@]3(C)CC[C@@H]2[C@@]2(C)C[C@@H]3OC(C)(C)O[C@@H]3C[C@@H]12" reads 0.72

====

- assay: Synergistic cytotoxicity against mouse L5178 cells assessed as combination index at ED50 using 600:1 test compound to doxorubicin ratio after 48 hrs by MTT-based checkerboard microplate method
- Format: functional
quantity-kind: CI

The measured CI associated with "CO/N=C1/C=C2C3=CC[C@H]([C@@]4(C)OC(C)(C)O[C@@H]4CCC(C)(C)O)[C@@]3(C)CC[C@@H]2[C@@]2(C)C[C@@H]3OC(C)(C)O[C@@H]3C[C@@H]12" reads 1.14

The measured CI associated with "CO/N=C1\C=C2[C@H](CC[C@]3(C)[C@@H]([C@@]4(C)OC(C)(C)O[C@@H]4CCC(C)(C)O)CC[C@@]23O)[C@@]2(C)C[C@@H]3OC(C)(C)O[C@@H]3C[C@@H]12" reads 0.93

The measured CI associated with "CCO/N=C1/C=C2[C@H](CC[C@]3(C)[C@@H]([C@@]4(C)OC(C)(C)O[C@@H]4CCC(C)(C)O)CC[C@@]23O)[C@@]2(C)C[C@@H]3OC(C)(C)O[C@@H]3C[C@@H]12" reads 0.75

The measured CI associated with "CC(C)(O)CC[C@H]1OC(C)(C)O[C@]1(C)[C@H]1CC=C2C3=C/C(=N\OC(C)(C)C)[C@@H]4C[C@H]5OC(C)(C)O[C@H]5C[C@]4(C)[C@H]3CC[C@@]21C" reads 0.83

====

- assay: Synergistic cytotoxicity against mouse L5178 cells assessed as combination index at ED50 using 37.5:1 test compound to doxorubicin ratio after 48 hrs by MTT-based checkerboard microplate method
- Assay type: functional
Response field label takes 1.0 when CI is strictly below 1 and 0.0 in all other cases.

>  <item-smiles>
CC(C)(O)CC[C@H]1OC(C)(C)O[C@]1(C)[C@H]1CC=C2C3=C/C(=N/OC(C)(C)C)[C@@H]4C[C@H]5OC(C)(C)O[C@H]5C[C@]4(C)[C@H]3CC[C@@]21C

>  <label-value>
1.0

$$$$

Asked: Field: below-cutoff. Rule: recorded CI strictly less than 1. Subject: "CO/N=C1\C=C2[C@H](CC[C@]3(C)[C@@H]([C@@]4(C)OC(C)(C)O[C@@H]4CCC(C)(C)O)CC[C@@]23O)[C@@]2(C)C[C@@H]3OC(C)(C)O[C@@H]3C[C@@H]12"
Given back: 0.0

Asked: Field: below-cutoff. Rule: recorded CI strictly less than 1. Subject: "CC(C)(O)CC[C@H]1OC(C)(C)O[C@]1(C)[C@H]1CC=C2C3=C/C(=N\OC(C)(C)C)[C@@H]4C[C@H]5OC(C)(C)O[C@H]5C[C@]4(C)[C@H]3CC[C@@]21C"
Given back: 0.0

Asked: Field: below-cutoff. Rule: recorded CI strictly less than 1. Subject: "C=CCO/N=C1/C=C2[C@H](CC[C@]3(C)[C@@H]([C@@]4(C)OC(C)(C)O[C@@H]4CCC(C)(C)O)CC[C@@]23O)[C@@]2(C)C[C@@H]3OC(C)(C)O[C@@H]3C[C@@H]12"
Given back: 0.0

Asked: Field: below-cutoff. Rule: recorded CI strictly less than 1. Subject: "CO/N=C1/C=C2C3=CC[C@H]([C@@]4(C)OC(C)(C)O[C@@H]4CCC(C)(C)O)[C@@]3(C)CC[C@@H]2[C@@]2(C)C[C@@H]3OC(C)(C)O[C@@H]3C[C@@H]12"
Given back: 1.0

Asked: Field: below-cutoff. Rule: recorded CI strictly less than 1. Subject: "C=CCO/N=C1\C=C2[C@H](CC[C@]3(C)[C@@H]([C@@]4(C)OC(C)(C)O[C@@H]4CCC(C)(C)O)CC[C@@]23O)[C@@]2(C)C[C@@H]3OC(C)(C)O[C@@H]3C[C@@H]12"
Given back: 0.0

Asked: Field: below-cutoff. Rule: recorded CI strictly less than 1. Subject: "C=CCO/N=C1/C=C2C3=CC[C@H]([C@@]4(C)OC(C)(C)O[C@@H]4CCC(C)(C)O)[C@@]3(C)CC[C@@H]2[C@@]2(C)C[C@@H]3OC(C)(C)O[C@@H]3C[C@@H]12"
Given back: 1.0

====

CI values, listed per item
- assay: Synergistic cytotoxicity against mouse L5178 cells assessed as combination index at ED90 using 75:1 test compound to doxorubicin ratio after 48 hrs by MTT-based checkerboard microplate method
- Assay type: functional
Give the value as a plain number.

Example entries and their recorded answers appear below.
>  <item-smiles>
CC(C)(O)CC[C@H]1OC(C)(C)O[C@]1(C)[C@H]1CC=C2C3=CC(=O)N[C@@H]4C[C@H]5OC(C)(C)O[C@H]5C[C@]4(C)[C@H]3CC[C@@]21C

>  <reported-measurement>
0.43

$$$$
>  <item-smiles>
C=CCO/N=C1/C=C2[C@H](CC[C@]3(C)[C@@H]([C@@]4(C)OC(C)(C)O[C@@H]4CCC(C)(C)O)CC[C@@]23O)[C@@]2(C)C[C@@H]3OC(C)(C)O[C@@H]3C[C@@H]12

>  <reported-measurement>
1.03

$$$$
>  <item-smiles>
CO/N=C1\C=C2[C@H](CC[C@]3(C)[C@@H]([C@@]4(C)OC(C)(C)O[C@@H]4CCC(C)(C)O)CC[C@@]23O)[C@@]2(C)C[C@@H]3OC(C)(C)O[C@@H]3C[C@@H]12

>  <reported-measurement>
1.19

$$$$
>  <item-smiles>
CCO/N=C1\C=C2[C@H](CC[C@]3(C)[C@@H]([C@@]4(C)OC(C)(C)O[C@@H]4CCC(C)(C)O)CC[C@@]23O)[C@@]2(C)C[C@@H]3OC(C)(C)O[C@@H]3C[C@@H]12

>  <reported-measurement>
0.84

$$$$

# ---- query molecule ----
The measured CI associated with "CCO/N=C1/C=C2[C@H](CC[C@]3(C)[C@@H]([C@@]4(C)OC(C)(C)O[C@@H]4CCC(C)(C)O)CC[C@@]23O)[C@@]2(C)C[C@@H]3OC(C)(C)O[C@@H]3C[C@@H]12" reads 0.58

====

CI values, listed per item
- assay: Synergistic cytotoxicity against mouse L5178 cells expressing human ABCB1 assessed as combination index at ED50 using 15:1 test compound to doxorubicin ratio after 48 hrs by MTT-based checkerboard microplate method
- Type: functional
Give the value as a plain number.

Example entries and their recorded answers appear below.
>  <item-smiles>
CO/N=C1/C=C2C3=CC[C@H]([C@@]4(C)OC(C)(C)O[C@@H]4CCC(C)(C)O)[C@@]3(C)CC[C@@H]2[C@@]2(C)C[C@@H]3OC(C)(C)O[C@@H]3C[C@@H]12

>  <reported-measurement>
0.75

$$$$
>  <item-smiles>
CCO/N=C1/C=C2C3=CC[C@H]([C@@]4(C)OC(C)(C)O[C@@H]4CCC(C)(C)O)[C@@]3(C)CC[C@@H]2[C@@]2(C)C[C@@H]3OC(C)(C)O[C@@H]3C[C@@H]12

>  <reported-measurement>
0.42

$$$$
>  <item-smiles>
C=CCO/N=C1\C=C2[C@H](CC[C@]3(C)[C@@H]([C@@]4(C)OC(C)(C)O[C@@H]4CCC(C)(C)O)CC[C@@]23O)[C@@]2(C)C[C@@H]3OC(C)(C)O[C@@H]3C[C@@H]12

>  <reported-measurement>
0.17

$$$$

The measured CI associated with "CC(C)(O)CC[C@H]1OC(C)(C)O[C@]1(C)[C@H]1CC[C@@]2(O)C3=C/C(=N\OC(C)(C)C)[C@@H]4C[C@H]5OC(C)(C)O[C@H]5C[C@]4(C)[C@H]3CC[C@]12C" reads 0.66
